Provenance of the data: PubChem BioAssay (Tox21)

- Test Method Notes: qHTS assay to identify aromatase inhibitors - cell viability counter screen (AID 743084);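 note: cells stimulated with testosterone during compound exposure; nearly all actives have a fitted effect of over 55% in size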
- Assay Context: MCF-7 aro ERE viability, CellTiter-Fluor, 24 h; series mostly up to 70.3 µM
Results filed as inconclusive are left out. Active and inactive are the calls of the source. Calls come from the whole dose curve; as a rule, active = well fitted cell-killing curve with a large enough effect in the repeat runs; inconclusive = weak or mixed curves, or effect the other way; inactive = no such curve, though single readings can be large or run the other way.
# output must be one of active, inactive

Worked examples follow.
>>> category_label("COC(=O)/C=C(\\C)OP(=O)(OC)OC")
"inactive"
>>> category_label("CC(=O)O.CC(=O)O.CC(=O)O.CC(=O)O.CC(=O)O.CC(=O)O.CC(=O)O.O.O.[Cr].[Cr].[Cr]")
"inactive"
>>> category_label("CCCCN(CCCC)C(=S)[S-].CCCCN(CCCC)C(=S)[S-].[Ni+2]")
"inactive"
>>> category_label("O=[N+]([O-])c1ccccc1-c1ccccc1")
"inactive"
>>> category_label("CNN")
"inactive"
>>> category_label("Brc1cccc(-c2ccccc2)c1")
"inactive"
>>> category_label("O=C(N[C@@H]1N=C(c2ccccc2F)c2cccc3c2N(CC3)C1=O)c1cc2ccccc2[nH]1")
"inactive"
>>> category_label("CNC(=O)/C=C(\\C)OP(=O)(OC)OC")
"inactive"

Tell me the assay call for O=S1OCC2C(CO1)C1(Cl)C(Cl)=C(Cl)C2(Cl)C1(Cl)Cl (stereo unspecified) please.
active

Tell me the assay call for CCN(CC)CCN1C(=O)CN=C(c2ccccc2F)c2cc(Cl)ccc21 please.
inactive

Tell me the assay call for N#CCCl please.
inactive

Tell me the assay call for O=[N+]([O-])c1cccc2cccc([N+](=O)[O-])c12 please.
inactive

Tell me the assay call for CCCCCCC[CH2][Sn]([Cl])([Cl])[CH2]CCCCCCC please.
inactive

Tell me the assay call for CCCC[N+]1(C)CCCC1 (tested in a mixture with another compound) please.
inactive

Tell me the assay call for O=c1c2ccccc2c(=O)c2c1cc(Cl)c1[nH]c3c([nH]c12)c(Cl)cc1c(=O)c2ccccc2c(=O)c13 please.
inactive

Tell me the assay call for CCN(CC)C(=O)N[C@@H]1C=C2c3cccc4[nH]cc(c34)C[C@@H]2N(C)C1 please.
inactive

Tell me the assay call for CC(=O)[O][Sn]([c]1ccccc1)([c]1ccccc1)[c]1ccccc1 please.
active

Tell me the assay call for C=C(C)C(=O)[O][Sn]([CH2]CCC)([CH2]CCC)[CH2]CCC please.
active

Tell me the assay call for CSC1=N[C@@](C)(c2ccccc2)C(=O)N1Nc1ccccc1 please.
inactive

Tell me the assay call for C1=CCC=C1 please.
inactive

Tell me the assay call for CSC(=O)c1c(C(F)F)nc(C(F)(F)F)c(C(=O)SC)c1CC(C)C please.
inactive

Tell me the assay call for O=C(Cl)c1ccccc1F please.
inactive

Tell me the assay call for CN1CCc2cc(Cl)c(O)cc2[C@H]2c3ccccc3CC[C@@H]21 please.
inactive

Tell me the assay call for CNC(=O)O/N=C(\C)C(C)S(C)(=O)=O (stereo unspecified) please.
inactive

Tell me the assay call for Clc1ccc(C2(Cn3cncn3)OCCO2)c(Cl)c1 please.
inactive

Tell me the assay call for CN(C)c1ccc(N)cc1 please.
active

---

- System: Androgen receptor (Homo sapiens)
- Test Method Notes: qHTS assay to identify small molecule antagonists of the androgen receptor (AR) signaling pathway using the MDA cell line (AID 743042; note: nearly all actives have a fitted effect of over 55% in size)
- Assay Context: MDA-kb2 AR-luc, MMTV luciferase, R1881 antagonist, 16 h; series mostly up to 70.3 µM
Inconclusive results are not listed. The source made the active and inactive calls. Calls follow the shape of the dose curve; as a rule, active = well fitted inhibition curve with a large enough effect in the repeat runs; inconclusive = weak or mixed curves, or effect the other way; inactive = no such curve, though single readings can be large or run the other way.
# output must be one of 1 = active, -1 = inactive

>>> category_label("N#Cc1sc2c(=O)c3ccccc3c(=O)c=2sc1C#N")
1

Tell me the assay call for CCC[CH2][Sn]([CH2]CCC)([CH2]CCC)[O][Sn]([CH2]CCC)([CH2]CCC)[CH2]CCC please.
1

Tell me the assay call for CCOP(=O)(OCC)Oc1nc(Cl)c(Cl)cc1Cl please.
-1

Tell me the assay call for BrCC(Br)(Br)Br please.
-1

Tell me the assay call for N#CC(C#N)=NNc1cccc(Cl)c1 please.
1

Tell me the assay call for CCCCCCC[CH2][Sn]([Cl])([Cl])[CH2]CCCCCCC please.
-1

Tell me the assay call for CCOC(=O)Cc1ccccc1 please.
-1

Tell me the assay call for CC1=C2C[C@H]3[C@@H](CC=C4C[C@@H](O)CC[C@@]43C)[C@@H]2CC[C@]12O[C@@H]1C[C@H](C)CN[C@H]1[C@H]2C please.
-1

Tell me the assay call for CC(C)NCC(O)c1ccccc1Cl (configuration not stated) please.
-1

---

- System: Glucocorticoid receptor (Homo sapiens)
- Test Method Notes: qHTS assay to identify small molecule agonists of the glucocorticoid receptor (GR) signaling pathway (AID 720691); for activation: % is set by controls: 0 for no effect and ±100 for the full control effect
- Assay Context: GR-bla HeLa, beta-lactamase reporter ratio, 18 h
Records with an inconclusive call do not appear. Active and inactive are the calls of the source. Calls follow the shape of the dose curve; as a rule, active = well fitted activation curve with a large enough effect in the signal ratio in the repeat runs (not every such curve was filed as active); inconclusive = weak or mixed curves, or effect the other way; inactive = no such curve, though single readings can be large or run the other way; the % refers to the signal ratio.
# output must be one of active, inactive

Worked examples follow.
>>> category_label("Clc1ccc(C(Cl)(Cl)Cl)cc1Cl")
"inactive"
>>> category_label("CC(C)=CC1C(C(=O)OC(C#N)c2cccc(Oc3ccccc3)c2)C1(C)C (stereo not drawn)")
"inactive"
>>> category_label("CO/N=C(/C1=NOCCO1)c1ccccc1Oc1ncnc(Oc2ccccc2Cl)c1F")
"inactive"
>>> category_label("CCNc1nc(NC(C)C(C)C)nc(SC)n1 (stereo not drawn)")
"inactive"

Tell me the assay call for O=C(O)CCCCCCNC1c2ccccc2CCc2ccccc21 please.
inactive

Tell me the assay call for CSC(C)(C)/C=N/O please.
inactive

Tell me the assay call for c1csc(-c2ccc(-c3cccs3)s2)c1 please.
active

Tell me the assay call for c1ccc(Nc2ccc(Nc3ccccc3)cc2)cc1 please.
inactive

Tell me the assay call for ClC(Cl)C(Cl)(Cl)Cl please.
inactive

---

- Test Method Notes: qHTS RealTime-Glo MT Cell Viability Assay in HEK293 cells - 8 hour (AID 1224887); note: nearly all actives have a fitted effect of over 50% in size; note: potency is the fitted concentration of half-maximal effect
- Assay Context: RealTime-Glo luminescence; series mostly up to 76.8 µM
Results filed as inconclusive are left out. Calls of active or inactive are those of the source. Calls follow the shape of the dose curve; as a rule, active = well fitted cell-killing curve with a large enough effect in the repeat runs; inconclusive = weak or mixed curves, or effect the other way; inactive = flat fitted curve, though single readings scatter.
Experimental Endpoint: Potency

>>> result("c1ccc(N=NNc2ccccc2)cc1")
"50.7 µM (active)"
>>> result("CC(C)C(Br)C(=O)NC(N)=O (centres undefined)")
"inactive"
>>> result("Oc1ccc2[nH]cc(CCCCN3CC=C(c4ccccc4)CC3)c2c1")
"8.49 µM (active)"
>>> result("CC[N+]1(CC)CCC(OC(=O)C(O)(c2ccccc2)c2ccccc2)C1 (centres undefined)")
"inactive"

---

- System: Acetylcholinesterase (Homo sapiens) (UniProt P22303)
- Sequence (P22303 whole entry, looked up): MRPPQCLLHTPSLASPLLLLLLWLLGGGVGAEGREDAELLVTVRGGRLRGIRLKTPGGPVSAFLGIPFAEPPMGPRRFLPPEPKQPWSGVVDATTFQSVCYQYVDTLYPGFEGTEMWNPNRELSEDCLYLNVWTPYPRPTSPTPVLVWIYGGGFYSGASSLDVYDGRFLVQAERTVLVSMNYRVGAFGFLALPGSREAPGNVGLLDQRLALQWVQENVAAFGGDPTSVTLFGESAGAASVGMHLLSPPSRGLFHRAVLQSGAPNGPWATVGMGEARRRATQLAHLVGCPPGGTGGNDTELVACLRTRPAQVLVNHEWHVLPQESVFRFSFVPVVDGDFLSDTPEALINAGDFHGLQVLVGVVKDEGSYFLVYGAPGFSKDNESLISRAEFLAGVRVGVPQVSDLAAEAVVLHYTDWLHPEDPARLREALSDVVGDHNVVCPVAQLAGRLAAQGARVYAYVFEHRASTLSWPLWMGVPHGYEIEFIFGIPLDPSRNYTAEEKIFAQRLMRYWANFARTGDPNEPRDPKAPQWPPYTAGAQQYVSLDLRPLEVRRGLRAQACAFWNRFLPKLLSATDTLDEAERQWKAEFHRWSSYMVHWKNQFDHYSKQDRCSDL
- Test Method Notes: Acetylcholinesterase (AChE) small molecule antagonists: colormetric cell-based qHTS assay (AID 1347395); note: % is set by controls: 0 for no effect and ±100 for the full control effect; nearly all actives have a fitted effect of over 30% in size
- Assay Context: SH-SY5Y cells AChE activity, colorimetric (Ellman); series mostly up to 115 µM
Inconclusive results are not listed. Calls of active or inactive are those of the source. Calls come from the whole dose curve.
Experimental Endpoint: outcome

>>> result("O=[N+]([O-])C(Br)Br")
"inactive"
>>> result("C#CCC1=C(C)C(OC(=O)C2C(C=C(C)C)C2(C)C)CC1=O (stereo not drawn)")
"inactive"
>>> result("CCOP(=S)(NC(C)C)Oc1ccccc1C(=O)OC(C)C (stereo not drawn)")
"inactive"

---

- System: Estrogen receptor (Homo sapiens) (UniProt P03372)
- Sequence (P03372 whole entry, looked up): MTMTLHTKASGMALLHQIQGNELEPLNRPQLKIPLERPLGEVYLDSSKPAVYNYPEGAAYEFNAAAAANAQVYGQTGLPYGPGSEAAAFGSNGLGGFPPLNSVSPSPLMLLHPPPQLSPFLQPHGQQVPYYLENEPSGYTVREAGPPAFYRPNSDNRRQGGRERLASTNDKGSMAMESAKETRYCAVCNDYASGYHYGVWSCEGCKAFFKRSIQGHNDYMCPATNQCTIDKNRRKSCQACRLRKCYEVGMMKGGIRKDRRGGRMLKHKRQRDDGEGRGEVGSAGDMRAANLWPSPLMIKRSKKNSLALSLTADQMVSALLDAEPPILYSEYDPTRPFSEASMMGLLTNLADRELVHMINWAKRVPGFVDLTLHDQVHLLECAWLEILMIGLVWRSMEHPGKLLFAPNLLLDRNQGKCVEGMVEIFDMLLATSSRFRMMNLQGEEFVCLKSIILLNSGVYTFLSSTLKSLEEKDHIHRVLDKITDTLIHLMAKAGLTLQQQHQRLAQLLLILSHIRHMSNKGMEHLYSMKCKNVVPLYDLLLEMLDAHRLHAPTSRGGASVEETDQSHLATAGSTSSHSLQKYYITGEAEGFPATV
- Test Method Notes: qHTS assay to identify small molecule antagonists of the estrogen receptor alpha (ER-alpha) signaling pathway using the BG1 cell line in the presence of 0.1 nM 17-beta-estradiol (AID 1259244); note: nearly all actives have a fitted effect of over 50% in size
- Assay Context: VM7Luc4E2 (BG1) ERE-luciferase, antagonist mode, 0.1 nM E2, 22 h; series mostly up to 92.4 µM
Results filed as inconclusive are left out. The source made the active and inactive calls. Calls come from the whole dose curve; as a rule, active = well fitted inhibition curve with a large enough effect in the repeat runs; inconclusive = weak or mixed curves; inactive = no such curve, though single readings can be large or run the other way.
# output must be one of active, inactive

Worked examples follow.
>>> category_label("Oc1cc(Cl)cc(Cl)c1")
"inactive"
>>> category_label("CSC(=O)c1c(C(F)F)nc(C(F)(F)F)c(C(=O)SC)c1CC(C)C")
"inactive"
>>> category_label("CC(Cc1ccc2c(c1)OCO2)NO (centres undefined)")
"inactive"

Here is the next item to consider.
Tell me the assay call for CN(C)c1ccc(N)cc1 please.
active

---

- Test Method Notes: A CellTox Green Cytotoxicity Assay to monitor cytotoxicity in HepG2 cells - 24 hour (AID 1224878); note: nearly all actives have a fitted effect of over 45% in size; for Cytotoxicity: % is set by controls: 0 for no effect and ±100 for the full control effect
- Assay Context: CellTox Green fluorescence; series mostly up to 76.8 µM
Inconclusive results are not listed. The source made the active and inactive calls. The call rests on the fitted dose curve; in most records, active means well fitted activation curve with a large enough effect in the repeat runs; inconclusive means weak or mixed curves; inactive means flat fitted curve, though single readings scatter.
# output must be one of T for active, F for inactive

Worked examples follow.
>>> category_label("CN1C(=O)[C@@H](NC(=O)c2cc3ccccc3[nH]2)N=C(c2ccccc2)c2ccccc21")
"F"
>>> category_label("C=CCOC(=O)c1ccccc1N")
"F"
>>> category_label("ClC1=C(Cl)[C@]2(Cl)[C@H]3[C@H]([C@@H]4C=C[C@H]3C4)[C@@]1(Cl)C2(Cl)Cl")
"T"
>>> category_label("CCNc1nc(NC(C)C(C)C)nc(SC)n1 (stereo unspecified)")
"F"
>>> category_label("O=S(=O)(O)F")
"F"

Here is the next item to consider.
Tell me the assay call for CC1CCCC1 please.
F
